Catalogue of self-cleavage readings, one per entry.
B1: Osa-1-4 twister ribozyme (parent)
chain: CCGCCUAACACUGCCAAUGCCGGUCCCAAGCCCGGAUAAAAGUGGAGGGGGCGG

- Variants of: B1
- measurement-protocol: self-cleavage, relative activity (ratio to wild type); higher = more cleavage; co-transcriptional
The answer should be written as a number, with no unit following it.

Solved cases (3 shown):
sequence-chain	assay-readout	observed-value
CCGCCUAACACUGCCAAUGCCGGUCACAAGCCCGGAUAAAAGUGGAGGGGGGGG [C26A C52G]	self-cleavage	0.08
CCGCCUAACACUGCCAAUGCCGGUCCCAAGCCCGGCUAAAAGUGGAGGGGGCUG [A36C G53U]	self-cleavage	0.13
CCGCCUAACACAGCCAAUUCCGGUCCCAAGCCCGGAUAAAAGUGGAGGGGGCGG [G19U U12A]	self-cleavage	0.07

In plain terms, CCGCCUAACACUGCCAAUGCCGGUCCCAAGCUCGGAAAAAAGUGGAGGGGGCGG [C32U U37A] has a documented self-cleavage of 0.21

Note to self: self-cleavage recorded for CCGCCUAAUACUGCCAAUGUCGGUCCCAAGCCCGGAUAAAAGUGGAGGGGGCGG [C20U C9U] was 0.68
